Recorded values, source patent US20230192818A1.

TARGET UNDER TEST: biotinylated SARS-CoV-2 S1 variant B.1.351 (Example 5) (SARS-CoV-2) (UniProt P0DTC2)
MEASUREMENT NOTES: phage ELISA screening
Reported values of ELISA for individual entries
PROPERTY NAME: ELISA

BINDER	MEASURED NUMBER
12-17 (antibody, V domains shown) VH: QVQLVESGGGVVQPGRSLRLSCAASGFTFGSYGMHWVRQAPGKGLEWVAVISYDGNHEYYADSVKGRFTISRDNSKNTLYLQMNSLRAEDTAVYYCARPHSGSYTAYFDYWGQGTLVTVSS VL: EIVLTQSPATLSLSPGERATLSCRASQSVSKFLAWYQQKPGQAPRLLIYDASNRATGIPARFSGSGSGTDFTLTISSLEPEDFAVYYCHQHSDWPLTFGGGTKVEIK	16.2
12-32 (antibody, V domains shown) VH: QVQLVESGGGVVQPGRSLRLSCAASGFTFGTYAMHWVRQAPGKGLEWVAVISYDGNNKYYADSVKGRFTISRDNSKNTLYLQMNSLRAEDTAVYYCAKTMSGSYFSAFDIWGQGTLVTVSS VL: EIVLTQSPATLSLSPGERATLSCRASQSIGSYLAWYQQKPGQAPRLLIYDVSNRATGIPARFSGSGSGTDFTLTISSLEPEDFAVYYCQQRDSFTFGGGTKVEIK	6.88
12-31 (antibody, V domains shown) VH: QVQLVESGGGVVQPGRSLRLSCAASGFTFSYYTMHWVRQAPGKGLEWVAVTSYDGSNKYYADSVKGRFTISRDNSKNTLYLQMNSLRAEDTAVYYCARPLGGSYFAAFDIWGQGTLVTVSS VL: EIVLTQSPATLSLSPGERATLSCRASQSIGSYLAWYQQKPGQAPRLLIYDVSNRATGIPARFSGSGSGTDFTLTISSLEPEDFAVYYCQQRDSFTFGGGTKVEIK	7.01
12-20 (antibody, V domains shown) VH: QVQLVESGGGVVQPGRSLRLSCAASGFSFGGYGMHWVRQAPGKGLEWVAVISYDGSNKYYADSVKGRFTISRDNSKNTLYLQMNSLRAEDTAVYYCARSKGGSYYGPFDYWGQGTLVTVSS VL: EIVLTQSPATLSLSPGERATLSCRASQSLGNYLAWYQQKPGQAPRLLIYDSSNRATGIPARFSGSGSGTDFTLTISSLEPEDFAVYYCQQRNTWPGVTFGGGTKVEIK	13.3
12-37 (antibody, V domains shown) VH: QVQLVESGGGVVQPGRSLRFSCAGTGFTFSSYAMHWVRQAPGKGLEWVAVISYDGSNQYYADSVKGRFTISRDNSKNTLYLQMNSLRAEDTAVYYCARSRSGSYLAYFDYWGQGTLVTVSS VL: EIELTQSPATLSLSPGERATLSCRASESVSESLAWYQQKPGQAPRLLIYDASNRATGIPARFSGSGSGTDFTLTISSLEPEDFAVYYCQQRTHGVTFGGGTKVEIK	5.5
